target: Sodium-dependent dopamine transporter (Homo sapiens, UniProt Q01959); assay: GPCRScan assay: inhibition of DAT; parameters: radioligand conc. used [nm] 3.6 – 16.0, parental cells stable HEK; conditions: read-out: Ki
Sequence (Q01959 whole entry): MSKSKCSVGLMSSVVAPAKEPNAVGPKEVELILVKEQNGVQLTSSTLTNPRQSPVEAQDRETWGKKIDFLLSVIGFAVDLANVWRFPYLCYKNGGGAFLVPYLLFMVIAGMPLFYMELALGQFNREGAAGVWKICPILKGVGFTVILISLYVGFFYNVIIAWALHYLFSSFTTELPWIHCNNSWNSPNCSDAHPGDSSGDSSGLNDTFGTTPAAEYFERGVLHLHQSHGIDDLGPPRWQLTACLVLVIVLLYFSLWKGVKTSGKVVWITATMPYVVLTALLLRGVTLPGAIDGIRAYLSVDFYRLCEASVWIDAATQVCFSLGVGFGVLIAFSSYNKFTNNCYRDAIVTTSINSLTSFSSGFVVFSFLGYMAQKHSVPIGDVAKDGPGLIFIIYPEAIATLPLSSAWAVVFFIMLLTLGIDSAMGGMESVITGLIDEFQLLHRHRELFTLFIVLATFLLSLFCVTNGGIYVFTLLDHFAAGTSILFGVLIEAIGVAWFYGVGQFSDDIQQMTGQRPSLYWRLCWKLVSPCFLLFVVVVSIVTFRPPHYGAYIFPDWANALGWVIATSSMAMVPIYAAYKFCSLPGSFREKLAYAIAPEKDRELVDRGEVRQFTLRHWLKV
pKi: −log10 of the molar value.
resultType: pKi

inputSmiles	resultType	observedValue
Cc1nc(N2CC[C@@H](O)C2)ncc1-c1cc(C(F)(F)F)cc2[nH]ncc12	pKi	5.77

###

molecular target: GABA-A receptor; anion channel; assay: GPCRScan assay: inhibition of GABAA/BZP
pKi: −log10 of the molar value.
resultType: pKi

compound	target	observedValue
Cc1nc(N2CC[C@@H](O)C2)ncc1-c1cc(C(F)(F)F)cc2[nH]ncc12 [TP-004]	GABA-A receptor; anion channel	5.34
